Provenance of the data: patent US9353090B2

Reported solubility at 24 h values for a set of compounds
Run Description: physchem
Condition Label: pH 2.2, aqueous buffer, kinetic from dmso stock, Solubility (pH 2.2)
Please respond with the number in µg/mL and leave the unit unwritten.

compound="Cc1ccc(OCc2ccc3c(c2)CCN(C2CCOCC2)C3)c(-c2cccc(N3CC[C@@]4(C(=O)O)C[C@H]4C3)n2)c1 [Compound 16]" measure_unit=µg/mL result_number=130
compound="CO[C@H]1CN(c2nc(-c3cc(C)ccc3OCc3ccc4c(c3C)CCN(C3CCOCC3)C4)cs2)CC[C@H]1C(=O)O [Compound 178]" measure_unit=µg/mL result_number=110
compound="Cc1cccc(-c2csc(N3C[C@@H]4C[C@]4(C(=O)O)C3)n2)c1OCc1ccc2c(c1C)CCN(C1CCOCC1)C2 [Compound 136]" measure_unit=µg/mL result_number=110
compound="Cc1cccc(-c2csc(N3C[C@@H]4C[C@]4(C(=O)O)C3)n2)c1OCc1ccc2c(c1C)CCN(C1COC1)CC2 [Compound 143]" measure_unit=µg/mL result_number=110
compound="Cc1ccc(OCc2ccc3c(c2C)CCN(CC2COCCO2)C3)c(-c2csc(N3CC[C@@]4(C(=O)O)C[C@H]4C3)n2)c1 (stereo partly drawn) [Compound 117]" measure_unit=µg/mL result_number=120

Could you now consider this next compound?
[Q] Data request, read-out solubility at 24 h, for CO[C@H]1CN(c2nc(-c3cc(C)ccc3OCc3ccc4c(c3C)CCN(C3CCOCC3)CC4)cs2)CC[C@H]1C(=O)O [Compound 182]
[A] 120

----------
Reported Metabolic stability (Qh %), % hepatic blood flow values for a set of compounds
Run Description: Human liver microsome (HLM) metabolic stability assay
Type: in vitro ADME
Condition Label: human liver microsomes

Previously resolved entries follow.
smiles_representation=CO[C@H]1CN(c2cccc(-c3cc(C)ccc3OCc3ccc4c(c3C)CCN(C3CCOCC3)C4=O)n2)CC[C@H]1C(=O)O result=<24%
smiles_representation=Cc1c(COc2ccccc2-c2cccc(N3CC[C@@]4(C(=O)O)C[C@H]4C3)n2)ccc2c1CCN([C@@H]1CCOC1)C2 result=49%

Could you now consider this next compound?
[Q] Data request, read-out Metabolic stability (Qh %), % hepatic blood flow, for Cc1ccc(OCc2ccc3c(c2)CCN(C2CCOCC2)C3)c(-c2csc(N3C[C@@H]4C[C@]4(C(=O)O)[C@H]3C)n2)c1
[A] <24%

----------
Run Description: physchem
Condition Label: pH 4.5, aqueous buffer, kinetic from dmso stock, Solubility (pH 4.5)
// label = yes (1) if solubility at 24 h is not less than 80 µg/mL, otherwise no (0)

smiles_representation=COC[C@H]1N(c2cccc(-c3cccc(C)c3OCc3ccc4c(c3)[C@@H](C)CN(C3CCOCC3)CC4)n2)C[C@@H]2C[C@@]21C(=O)O category_label="yes (1)"
smiles_representation=COc1cc(COc2c(C)cccc2-c2csc(N3CC[C@@H](C(=O)O)[C@@H](OC)C3)n2)cc2c1CN([C@H]1CCOC1)CC2 category_label="yes (1)"
smiles_representation=Cc1ccc(OCc2ccc3c(c2C)CCN(C2CCOCC2)CC3)c(-c2csc(N3C[C@@H]4C[C@]4(C(=O)O)C3)n2)c1 category_label="no (0)"

[Q] Is solubility at 24 h for COC[C@H]1N(c2cccc(-c3cc(C)ccc3OCc3cc(C)c4c(c3)CCN(C3CCOCC3)C4)n2)C[C@@H]2C[C@@]21C(=O)O at or above 80 µg/mL?
[A] yes (1)

[Q] Record: Cc1ccc(OCc2cc(C)c3c(c2)CCN(C2COC2)C3)c(-c2csc(N3CC[C@@]4(C(=O)O)C[C@H]4C3)n2)c1
[A] no (0)

[Q] Record: COC[C@H]1N(c2cccc(-c3cc(C)ccc3OCc3ccc4c(c3C)CCN(C3CCOCC3)C4)n2)C[C@@H]2C[C@@]21C(=O)O
[A] yes (1)

----------
Run Description: Human liver microsome (HLM) metabolic stability assay
Type: in vitro ADME
Condition Label: human liver microsomes
Protocol: The 5 time point, high-throughput human liver microsome (HLM) metabolic stability assay is designed to determine in vitro compound metabolism. Compounds are incubated with HLMs at a concentration of 1 uM, at 37° C., for a total of 60 min. The percent of compound remaining at 5, 15, 30, and 60 min is used to calculate the t1/2 (min), CLint (mL/min/kg), CLh (mL/min/kg), and % Qh. […] The plates are analyzed using LC/MS/MS with electron spray ionization (ESI) and the previously determined MRM transitions. […]
Reported Metabolic stability (Qh %), % hepatic blood flow values for a set of compounds

Previously resolved entries follow.
compound="CCc1cc(COc2c(C)cccc2-c2cccc(N3C[C@@H]4C[C@]4(C(=O)O)[C@H]3COC)n2)cc2c1CN(C1COC1)CC2 [Compound 54]" result=39%
compound="Cc1ccc(OCc2cc(C)c3c(c2C)CCN(C2CCOCC2)C3)c(-c2csc(N3CC[C@@]4(C(=O)O)C[C@H]4C3)n2)c1 [Compound 125]" result=<24%

Could you now consider this next compound?
[Q] Data request, read-out Metabolic stability (Qh %), % hepatic blood flow, for Cc1ccc(OCc2ccc3c(c2C)CCN(C2COC2)CC3)c(-c2csc(N3C[C@@H]4C[C@]4(C(=O)O)C3)n2)c1 [Compound 149]
[A] <24%

----------
Experimental Target: human soluble guanylate cyclase alpha 1 and beta 1 subunits (sGC) (Homo sapiens (Human))
Sequence (Q02108 whole entry partner): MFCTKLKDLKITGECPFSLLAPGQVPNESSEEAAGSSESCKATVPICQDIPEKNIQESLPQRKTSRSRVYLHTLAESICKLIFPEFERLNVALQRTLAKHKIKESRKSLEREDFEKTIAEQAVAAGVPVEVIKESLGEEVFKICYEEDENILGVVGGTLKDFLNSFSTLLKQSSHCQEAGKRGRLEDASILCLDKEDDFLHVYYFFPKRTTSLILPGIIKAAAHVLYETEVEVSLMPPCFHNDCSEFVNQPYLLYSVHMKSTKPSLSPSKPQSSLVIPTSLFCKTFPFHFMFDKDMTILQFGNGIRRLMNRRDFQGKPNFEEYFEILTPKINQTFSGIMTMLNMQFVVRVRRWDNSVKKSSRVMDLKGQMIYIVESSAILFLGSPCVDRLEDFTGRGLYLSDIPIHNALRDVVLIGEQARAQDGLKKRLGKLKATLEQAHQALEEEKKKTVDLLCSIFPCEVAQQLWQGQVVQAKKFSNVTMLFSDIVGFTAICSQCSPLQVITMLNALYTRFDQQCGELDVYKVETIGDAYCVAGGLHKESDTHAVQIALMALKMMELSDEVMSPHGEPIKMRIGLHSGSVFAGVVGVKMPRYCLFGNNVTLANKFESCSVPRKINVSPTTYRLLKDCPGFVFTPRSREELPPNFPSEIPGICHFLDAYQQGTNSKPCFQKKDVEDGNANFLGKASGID
Sequence (Q02153 whole entry): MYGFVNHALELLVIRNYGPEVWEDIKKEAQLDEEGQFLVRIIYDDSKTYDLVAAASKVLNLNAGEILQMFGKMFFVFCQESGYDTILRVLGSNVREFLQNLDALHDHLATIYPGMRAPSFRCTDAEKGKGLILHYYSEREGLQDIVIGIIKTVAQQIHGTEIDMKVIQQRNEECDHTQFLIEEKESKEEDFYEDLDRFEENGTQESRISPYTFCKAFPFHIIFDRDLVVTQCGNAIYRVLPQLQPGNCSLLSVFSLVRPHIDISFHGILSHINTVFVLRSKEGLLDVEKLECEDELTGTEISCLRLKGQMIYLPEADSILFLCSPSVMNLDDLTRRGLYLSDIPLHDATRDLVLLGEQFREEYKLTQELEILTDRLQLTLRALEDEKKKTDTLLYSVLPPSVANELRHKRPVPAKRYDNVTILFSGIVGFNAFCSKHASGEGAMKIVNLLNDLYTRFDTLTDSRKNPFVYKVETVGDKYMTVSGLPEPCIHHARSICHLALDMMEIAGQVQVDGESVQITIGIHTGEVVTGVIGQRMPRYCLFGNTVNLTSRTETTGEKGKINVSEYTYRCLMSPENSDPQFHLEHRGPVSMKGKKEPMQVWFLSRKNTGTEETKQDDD
Run Description: sGC cellular activator assay (cGMP, HTRF), in the presence and absence of 50% human serum
Condition Label: CHO cells stably expressing human sGC alpha 1/beta 1, preincubated with 40 microM ODQ; cGMP by HTRF; Table 2 does not state whether with or without 50% human serum
Outcome Measure: pEC50
pEC50 is a log-scale quantity: -log10 of the concentration expressed in molar.

[Q] Which measured pEC50 belongs to Cc1c(COc2ccccc2-c2cccc(N3CC[C@@]4(C(=O)O)C[C@H]4C3)n2)ccc2c1CCN(C1CCOCC1)C2 , tested on human soluble guanylate cyclase alpha 1 and beta 1 subunits (sGC) (Homo sapiens (Human))?
[A] 8.52

----------
Reported solubility at 24 h values for a set of compounds
Run Description: physchem
Condition Label: pH 6.8, aqueous buffer, kinetic from dmso stock, Solubility (pH 6.8)
Please respond with the number in µg/mL and leave the unit unwritten.

Previously resolved entries follow.
compound=CO[C@H]1CN(c2cccc(-c3cccc(C)c3OCc3ccc4c(c3C)CCN(C3CCOCC3)C4)n2)CC[C@H]1C(=O)O result_number=80
compound=Cc1ccc(OCc2cc(C)c3c(c2C)CCN(C2COC2)C3)c(-c2cccc(N3C[C@@H]4C[C@]4(C(=O)O)C3)n2)c1 result_number=52
compound=CO[C@H]1CN(c2nc(-c3cc(C)ccc3OCc3cc(C)c4c(c3F)CCN(C3CCOCC3)C4)cs2)CC[C@H]1C(=O)O result_number=1.1

[Q] Data request, read-out solubility at 24 h, for Cc1c(COc2ccccc2-c2cccc(N3CC[C@@]4(C(=O)O)C[C@H]4C3)n2)ccc2c1CCN([C@@H]1CCOC1)C2
[A] 44

[Q] Record: COC[C@H]1N(c2cccc(-c3cccc(C)c3OCc3cc(C)c4c(c3C)CCN(C3CCOCC3)C4)n2)C[C@@H]2C[C@@]21C(=O)O
[A] 129

[Q] Record: Cc1ccc(OCc2ccc3c(c2C)CCN(C2CCOCC2)C3)c(-c2csc(N3C[C@@H]4C[C@]4(C(=O)O)[C@H]3C)n2)c1
[A] 25

[Q] Record: CO[C@H]1CN(c2cccc(-c3cccc(C)c3OCc3ccc4c(c3F)CCN(C3COC3)CC4)n2)CC[C@H]1C(=O)O
[A] 68

[Q] Record: COC[C@H]1N(c2cccc(-c3cccc(C)c3OCc3ccc4c(c3F)CCN(C3CCOC3)CC4)n2)C[C@@H]2C[C@@]21C(=O)O (stereo partly shown)
[A] 57.8

[Q] Record: Cc1c(COc2ccccc2-c2cccc(N3CC[C@@]4(C(=O)O)C[C@H]4C3)n2)ccc2c1CCN(C1CCC1)C2
[A] 6.2

[Q] Record: Cc1cc(COc2c(C)cccc2-c2csc(N3CC[C@@]4(C(=O)O)C[C@H]4C3)n2)cc2c1CN(CC1COCCO1)CC2 (stereo partly shown)
[A] 41

----------
Run Description: physchem
Condition Label: pH 4.5, aqueous buffer, kinetic from dmso stock, Solubility (pH 4.5)
Outcome Measure: log10 of solubility at 24 h (log10 of the value in µg/mL)
All values: log10 solubility at 24 h [µg/mL].

Previously resolved entries follow.
molecule="COCc1cc(COc2c(C)cccc2-c2cccc(N3CC[C@H](C(=O)O)[C@H](OC)C3)n2)cc2c1CN(C1CCOC1)CC2 (stereo partly shown)" outcome_measure="log10 of solubility at 24 h" result_number=2.01
molecule=CO[C@H]1CN(c2nc(-c3cccc(C)c3OCc3ccc4c(c3)[C@@H](C)CN(C3COC3)CC4)cs2)CC[C@H]1C(=O)O outcome_measure="log10 of solubility at 24 h" result_number=1.84

[Q] Data request, read-out log10 of solubility at 24 h, for Cc1ccc(OCc2cc(C)c3c(c2)CCN(C2CCOC2)C3)c(-c2csc(N3CC[C@@]4(C(=O)O)C[C@H]4C3)n2)c1 (mixture of isomers)
[A] 1.26

[Q] Record: CO[C@@H]1CN(c2nc(-c3cc(F)cc(C)c3OCc3ccc4c(c3C)CCN(C3COC3)CC4)cs2)CC[C@@H]1C(=O)O
[A] 1.71

[Q] Record: CO[C@@H]1CN(c2cccc(-c3cccc(C)c3OCc3ccc4c(c3C)CCN(C3CCOC3)CC4)n2)CC[C@@H]1C(=O)O (stereo partly shown)
[A] 1.95

[Q] Record: Cc1c(COc2ccccc2-c2cccc(N3CC[C@@]4(C(=O)O)C[C@H]4C3)n2)ccc2c1CCN(C1COC1)C2
[A] 2.08

[Q] Record: Cc1ccc(OCc2cc(C)c3c(c2)CCN(C2CCCOC2)C3)c(-c2csc(N3CC[C@@]4(C(=O)O)C[C@H]4C3)n2)c1 (mixture of isomers)
[A] 1.15

[Q] Record: CO[C@H]1CN(c2cccc(-c3cccc(C)c3OCc3ccc4c(c3C)CCN(C3CCOCC3)C4)n2)CC[C@H]1C(=O)O
[A] 2.04

[Q] Record: Cc1cc(COc2c(C)cccc2-c2csc(N3CC[C@@]4(C(=O)O)C[C@H]4C3)n2)c(C)c2c1CN(C1CCCOC1)CC2 (stereo partly shown)
[A] 1.84
